System: HDQ-P1
Assay: normalised viability (% of control), CellTiter-Blue; higher = more viable cells (100 = DMSO, 0 = benzethonium chloride kill control)
Details: incubation time: 72 h
Simple rule here: normalised viability less than 80% is Fulfilled, otherwise Not fulfilled.

Exercise: Answer whether the compound CN(C)CCOc1ccc(/C(=C(/CCCl)c2ccccc2)c2ccccc2)cc1 [Toremifene] (1 nM) has normalised viability strictly less than 80%
Solution: Not fulfilled

Exercise: Okay, and COc1cc2/c(=N/c3ccc(Br)cc3F)nc[nH]c2cc1OCC1CCN(C)CC1 [Vandetanib] (1 nM) ?
Solution: Fulfilled

Exercise: Another compound to check: CNC(=O)c1cc(Oc2ccc(NC(=O)Nc3ccc(Cl)c(C(F)(F)F)c3)c(F)c2)ccn1 [Regorafenib] (1 nM)
Solution: Not fulfilled

Exercise: And what about the compound Cc1[nH]c2ccccc2c1CCNCc1ccc(/C=C/C(=O)NO)cc1 [Panobinostat] (0.1 nM) ?
Solution: Not fulfilled

Exercise: Now the same for Nc1cc(C(F)(F)F)c(-c2cc(N3CCOCC3)nc(N3CCOCC3)n2)cn1 [BKM-120] (1 nM)
Solution: Not fulfilled

Exercise: Another compound to look at: O=C(Nc1cccnc1)N1CCC(Cc2cccc(Oc3ccc(C(F)(F)F)cn3)c2)CC1 [PF-3845] (1 nM)
Solution: Not fulfilled

Exercise: # iterate: COC(=O)c1ccc2c(c1)NC(=O)/C2=C(\Nc1ccc(N(C)C(=O)CN2CCN(C)CC2)cc1)c1ccccc1 [BIBF 1120] (1 nM)
Solution: Not fulfilled

Exercise: Cc1cc(Nc2cc(CN3CCOCC3)c3nc(C)c(Cc4ccc(Cl)cc4F)n3n2)n[nH]1 (1 nM) , same question.
Solution: Fulfilled

---

List of normalised response values.
System: HCC1937
Assay: normalised response (% of control), CellTiter-Glo; higher = more viable cells (100 = DMSO, 0 = benzethonium chloride kill control)
Conditions: incubation time: 72 h
Use % as the unit, but write only the number.

// below: answered molecules
O=P1(N(CCCl)CCCl)NCCCO1 (stereo not drawn) [Cyclophosphamide] (40 nM) ... 95.6
Cc1[nH]c2ccccc2c1CCNCc1ccc(/C=C/C(=O)NO)cc1 [Panobinostat] (1 nM) ... 96.5
c1ccc2c(CCNc3ccc(Nc4ccncc4)cc3)c[nH]c2c1 [Serdemetan] (1000 nM) ... 88.5
C=C1C[C@@H]2[C@H](CC[C@]3(C)C(=O)CC[C@@H]23)[C@@]2(C)C=CC(=O)C=C12 [Exemestane] (10 nM) ... 103

Exercise: Form entry - test system: HCC1937; read-out: normalised response; molecule: N#Cc1ccc(COC[C@H]2O[C@@H](n3c(NCc4ccc(Cl)c(Cl)c4)nc4c(N)ncnc43)[C@H](O)[C@@H]2O)cc1 (10 nM)
Solution: 98.7

Exercise: Please give the result for Cc1cc(Nc2cc(CN3CCOCC3)c3nc(C)c(Cc4ccc(Cl)cc4F)n3n2)n[nH]1 [Gandotinib] (1000 nM) too.
Solution: 96.7

Exercise: // query: COc1cc(OC2CCN(C)CC2)ccc1Nc1ncc2c(n1)n(C1CCCC1)c(=O)n2C [AZ 3146] (1 nM)
Solution: 95.9

Exercise: Another: S=P(N1CC1)(N1CC1)N1CC1 [Thio-TEPA] (5 nM)
Solution: 93.8

---

Test system: DU-4475
Conditions: 72 h
Measure Name: EC50, CellTiter-Blue viability (µM)
API: value field is a number in µM; no unit string.

CCc1c2c(nc3ccc(OC(=O)N4CCC(N5CCCCC5)CC4)cc13)-c1cc3c(c(=O)n1C2)COC(=O)[C@]3(O)CC [Irinotecan] ... 2.55
COc1cc(OC2CCN(C)CC2)ccc1Nc1ncc2c(n1)n(C1CCCC1)c(=O)n2C [AZ 3146] ... 5.18

Exercise: State the recorded EC50, CellTiter-Blue viability for this entry: CO[C@H]1C[C@@H]2CC[C@@H](C)[C@@](O)(O2)C(=O)C(=O)N2CCCC[C@H]2C(=O)O[C@H]([C@H](C)C[C@@H]2CC[C@@H](OP(C)(C)=O)[C@H](OC)C2)CC(=O)[C@H](C)/C=C(\C)[C@@H](O)[C@@H](OC)C(=O)[C@H](C)C[C@H](C)/C=C/C=C/C=C/1C [Ridaforolimus]
Solution: 0.00113

Exercise: Consider next the molecule COCC[n+]1c2c(n(Cc3cnccn3)c1C)C(=O)c1ccccc1C2=O [YM155] in the same way.
Solution: 0.114

Exercise: Now consider N#Cc1ccc(COC[C@H]2O[C@@H](n3c(NCc4ccc(Cl)c(Cl)c4)nc4c(N)ncnc43)[C@H](O)[C@@H]2O)cc1 and answer again.
Solution: 2.32

---

// reported normalised response for each item listed
System: HCC1937
Test: normalised response (% of control), CellTox Green; higher = less cell death (100 = DMSO, 0 = benzethonium chloride kill control)
Settings: incubation time: 72 h
Please answer in the form of a number followed by its unit of measurement.

# count of solved cases: 3
Cc1ccc(NC(=O)c2ccc(CN3CCN(C)CC3)cc2)cc1Nc1nc(-c2cccnc2)cs1 [Masitinib] (10000 nM) ... 88.7%
COC(=O)c1ccc2c(c1)NC(=O)/C2=C(\Nc1ccc(N(C)C(=O)CN2CCN(C)CC2)cc1)c1ccccc1 [Nintedanib] (100 nM) ... 108%
COc1cc2/c(=N/c3ccc(Br)cc3F)nc[nH]c2cc1OCC1CCN(C)CC1 [Vandetanib] (10 nM) ... 84.5%

Exercise: Observed normalised response on HCC1937 for C=C1C[C@@H]2[C@H](CC[C@]3(C)C(=O)CC[C@@H]23)[C@@]2(C)C=CC(=O)C=C12 [Exemestane] (100 nM) , please.
Solution: 56.9%

Exercise: What about this molecule? COCC[n+]1c2c(n(Cc3cnccn3)c1C)C(=O)c1ccccc1C2=O [YM155] (10000 nM)
Solution: 1.09%

Exercise: Entry to check: CNC(=O)c1cc(Oc2ccc(NC(=O)Nc3ccc(Cl)c(C(F)(F)F)c3)c(F)c2)ccn1 [Regorafenib] (10000 nM)
Solution: 10.5%

Exercise: And N#Cc1ccc(COC[C@H]2O[C@@H](n3c(NCc4ccc(Cl)c(Cl)c4)nc4c(N)ncnc43)[C@H](O)[C@@H]2O)cc1 (1000 nM) ?
Solution: 90.4%

Exercise: Thanks! And CCc1c2c(nc3ccc(OC(=O)N4CCC(N5CCCCC5)CC4)cc13)-c1cc3c(c(=O)n1C2)COC(=O)[C@]3(O)CC [Irinotecan] (100 nM) ?
Solution: 98%

---

System: CAL-148
Experiment: normalised viability (% of control), CellTiter-Blue; higher = more viable cells (about 100 = DMSO control)
Details: incubation time: 72 h
In plain terms, low normalised viability, meaning strictly below 90%, gives met, and everything else gives not met.

Cc1ccc(NC(=O)c2ccc(CN3CCN(C)CC3)cc2)cc1Nc1nc(-c2cccnc2)cs1 [Masitinib] (300 nM) ... met
COc1cc(OC2CCN(C)CC2)ccc1Nc1ncc2c(n1)n(C1CCCC1)c(=O)n2C [AZ 3146] (300 nM) ... not met

Exercise: Does this compound meet the criterion normalised viability < 90%? Cc1[nH]c2ccccc2c1CCNCc1ccc(/C=C/C(=O)NO)cc1 [Panobinostat] (30 nM)
Solution: met

Exercise: Can you handle O=P1(N(CCCl)CCCl)NCCCO1 (centres undefined) [Cyclophosphamide] (1200 nM) next?
Solution: not met

Exercise: And then COC(=O)c1ccc2c(c1)NC(=O)/C2=C(\Nc1ccc(N(C)C(=O)CN2CCN(C)CC2)cc1)c1ccccc1 [BIBF 1120] (300 nM) , what is it?
Solution: not met

Exercise: Quick one: CO[C@H]1C[C@@H]2CC[C@@H](C)[C@@](O)(O2)C(=O)C(=O)N2CCCC[C@H]2C(=O)O[C@H]([C@H](C)C[C@@H]2CC[C@@H](OP(C)(C)=O)[C@H](OC)C2)CC(=O)[C@H](C)/C=C(\C)[C@@H](O)[C@@H](OC)C(=O)[C@H](C)C[C@H](C)/C=C/C=C/C=C/1C [Ridaforolimus] (30 nM)
Solution: met

Exercise: Request: O=C(Nc1ccncc1)C(=O)c1cn(Cc2ccc(Cl)cc2)c2ccccc12 [Indibulin] (300 nM)
Solution: not met

Exercise: Another: Oc1ccc2c(c1)CC[C@H](c1ccccc1)[C@@H]2c1ccc(OCCN2CCCC2)cc1 [Lasofoxifene] (30 nM)
Solution: not met

---

System: HDQ-P1
Assay: normalised viability (% of control), CellTiter-Blue; higher = more viable cells (about 100 = DMSO control)
Details: 30 nM; incubation time: 72 h
Measure Name: normalised viability (%)
The reply should contain only the number, in %.

CN(C)CCOc1ccc(/C(=C(/CCCl)c2ccccc2)c2ccccc2)cc1 ... 109

Exercise: # input compound: CC(C)C[C@@H](C(=O)N[C@H](C(=O)OC1CCCC1)c1ccccc1)[C@H](O)C(=O)NO ; wanted: its normalised viability
Solution: 100

Exercise: Then N#Cc1ccc(COC[C@H]2O[C@@H](n3c(NCc4ccc(Cl)c(Cl)c4)nc4c(N)ncnc43)[C@H](O)[C@@H]2O)cc1 ?
Solution: 104

Exercise: Okay, and Cc1ccc(NC(=O)c2ccc(CN3CCN(C)CC3)cc2)cc1Nc1nc(-c2cccnc2)cs1 ?
Solution: 92.9
